# Tested on: Erythrocyte
# procedureDetails: Hemolytic activity in sheep erythrocytes at 128 ug/ml incubated for 1 hr by absorbance based analysis
# Format: toxicity, cell-based, Ovis aries
# experimentalConditions: dose 128 µg/ml
Positions of bridges follow the written chain, without caps; N, C: chain ends. Non-standard residues stand in square brackets, D forms with d. Residues, ends and D or L forms follow the SMILES beside them. *: point of attachment. S(2-cyclohexylethyl) = C1CCC(CCS*)CC1; Dab = NCC[C@H](N)C(=O)O

compound | Activity
CC(C)C[C@@H]1NC(=O)[C@@H](Cc2ccccc2)NC(=O)[C@H](CCN)NC(=O)[C@@H](NC(=O)[C@H](CCN)NC(=O)[C@@H](NC(=O)[C@H](N)CSSCCC2CCCCC2)[C@@H](C)O)CCNC(=O)[C@H]([C@@H](C)O)NC(=O)[C@H](CCN)NC(=O)[C@H](CCN)NC1=O (H-[dC](S(2-cyclohexylethyl))T[Dab][Dab][Dab][dF]L[Dab][Dab]T; lactam 4-C) | Non-Toxic
CC(C)C[C@@H]1NC(=O)[C@@H](Cc2ccccc2)NC(=O)[C@H](CCN)NC(=O)[C@@H](NC(=O)[C@H](CCN)NC(=O)[C@@H](NC(=O)[C@@H](CSSCCC2CCCCC2)NC(=O)CN)[C@@H](C)O)CCNC(=O)[C@H]([C@@H](C)O)NC(=O)[C@H](CCN)NC(=O)[C@H](CCN)NC1=O (H-G[dC](S(2-cyclohexylethyl))T[Dab][Dab][Dab][dF]L[Dab][Dab]T; lactam 5-C) | Non-Toxic

These entries and their values trace back to ChEMBL document CHEMBL5150048.
